The reported measurements were obtained from patent US10280163B2.

- subject-of-test: cellular IDO1 in HeLa cells (Homo sapiens, UniProt P14902)
- Construct: endogenous in cells; host or cells: HeLa cells (American Type Tissue Culture Collection), induced with human recombinant IFN-γ
- Sequence (P14902 whole entry): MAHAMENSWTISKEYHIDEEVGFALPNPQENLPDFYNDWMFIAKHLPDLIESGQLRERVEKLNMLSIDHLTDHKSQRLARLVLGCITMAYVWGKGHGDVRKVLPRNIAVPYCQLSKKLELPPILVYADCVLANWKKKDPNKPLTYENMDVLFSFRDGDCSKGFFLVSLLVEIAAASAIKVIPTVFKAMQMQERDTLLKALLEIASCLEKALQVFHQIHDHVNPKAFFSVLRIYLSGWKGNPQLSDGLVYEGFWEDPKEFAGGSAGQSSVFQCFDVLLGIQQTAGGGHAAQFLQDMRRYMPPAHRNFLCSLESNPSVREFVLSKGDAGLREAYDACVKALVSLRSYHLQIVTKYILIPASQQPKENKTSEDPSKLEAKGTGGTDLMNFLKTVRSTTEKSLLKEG
- experiment-notes: HeLa cell-based IDO1 Kyn (kynurenine) production assay
- measurement-context: Table 1, 5-substituted imidazo[1,5-a]pyridines, IFN-γ 100 ng/mL, 48 hours
pEC50: −log10 of the molar value.

{"columns": ["compound", "subject-of-test", "comparative-sign", "pEC50"],
 "data": [
  ["OC(c1cc(C2CC2)cc2cncn12)C1CCCCC1 (stereo not shown) [Example A108, 2,2,2-trifluoroacetate]", "cellular IDO1 in HeLa cells (Homo sapiens, UniProt P14902)", "=", 5.35],
  ["C#Cc1ccc2cncn2c1C(O)C1CCCCC1 (stereo not shown) [Example A123]", "cellular IDO1 in HeLa cells (Homo sapiens, UniProt P14902)", "=", 6.25],
  ["OC(CC1CCCCC1)c1cc(C(F)(F)F)cc2cncn12 (single isomer, unassigned) [Example A114b]", "cellular IDO1 in HeLa cells (Homo sapiens, UniProt P14902)", "=", 5.26],
  ["OC1CCCC(C(O)c2c(C3CC3)ccc3cncn23)C1 (racemic) [Example A164a]", "cellular IDO1 in HeLa cells (Homo sapiens, UniProt P14902)", "=", 6.22],
  ["CC(C)(C)C(O)c1cccc2cncn12 (stereo not shown) [Example A004]", "cellular IDO1 in HeLa cells (Homo sapiens, UniProt P14902)", "<", 5.00],
  ["OC(c1c(Cl)c(Cl)c(Cl)c2cncn12)C1CCCCC1 (stereo not shown) [Example A154]", "cellular IDO1 in HeLa cells (Homo sapiens, UniProt P14902)", "=", 6.18],
  ["OC(c1c(C2CC2)ccc2cncn12)C1CCCCC1 (single isomer, unassigned) [Example A129b]", "cellular IDO1 in HeLa cells (Homo sapiens, UniProt P14902)", "<", 5.00],
  ["OC(c1c(Cl)ccc2cncn12)C1CCCCC1 (single isomer, unassigned) [Example A116b]", "cellular IDO1 in HeLa cells (Homo sapiens, UniProt P14902)", "<", 5.00],
  ["OC(c1c(C2CC2)ccc2cncn12)C1CC2CCC1C2 (stereo not shown) [Example A162]", "cellular IDO1 in HeLa cells (Homo sapiens, UniProt P14902)", "=", 7.47],
  ["OC(c1cc(Cl)cc2cncn12)C1CCCC1 (stereo not shown) [Example A103]", "cellular IDO1 in HeLa cells (Homo sapiens, UniProt P14902)", "=", 5.82],
  ["OC(c1c(C2CC2)ccc2cncn12)C1CCCCC1 (single isomer, unassigned) [Example A126a]", "cellular IDO1 in HeLa cells (Homo sapiens, UniProt P14902)", "=", 6.81],
  ["c1cc(CC2CCCCC2)n2cncc2c1 [Example A015]", "cellular IDO1 in HeLa cells (Homo sapiens, UniProt P14902)", "<", 5.00],
  ["OC(CC1CCCCC1)c1cc(Cl)cc2cncn12 (stereo not shown) [Example A102]", "cellular IDO1 in HeLa cells (Homo sapiens, UniProt P14902)", "=", 5.75],
  ["O=C1C2CCC(C2)C1C(O)c1c(C2CC2)ccc2cncn12 (stereo not shown) [Example A161]", "cellular IDO1 in HeLa cells (Homo sapiens, UniProt P14902)", "<", 5.00],
  ["CC(C)C(O)c1cccc2cncn12 (stereo not shown) [Example A005]", "cellular IDO1 in HeLa cells (Homo sapiens, UniProt P14902)", "<", 5.00],
  ["OC1CCCC(C(O)c2c(C3CC3)ccc3cncn23)C1 (racemic) [Example A164c]", "cellular IDO1 in HeLa cells (Homo sapiens, UniProt P14902)", "=", 6.24],
  ["OC(CC1CCCCC1)c1c(C(F)(F)F)ccc2cncn12 (single isomer, unassigned) [Example A127b]", "cellular IDO1 in HeLa cells (Homo sapiens, UniProt P14902)", "=", 5.10],
  ["OC(c1cc(Br)cc2cncn12)C1CCCCC1 (stereo not shown) [Example A111]", "cellular IDO1 in HeLa cells (Homo sapiens, UniProt P14902)", "=", 6.02],
  ["OC(c1c(Cl)c(Cl)cc2cncn12)C1CCCCC1 (single isomer, unassigned) [Example A143a]", "cellular IDO1 in HeLa cells (Homo sapiens, UniProt P14902)", "=", 6.56],
  ["OC(CC1CCCCC1)c1c(Br)ccc2cncn12 (single isomer, unassigned) [Example A119b]", "cellular IDO1 in HeLa cells (Homo sapiens, UniProt P14902)", "=", 5.03],
  ["OC(CC1CCCCC1)c1c(I)ccc2cncn12 (stereo not shown) [Example A124]", "cellular IDO1 in HeLa cells (Homo sapiens, UniProt P14902)", "=", 6.56],
  ["OC(CC1CCCCC1)c1c(Cl)ccc2cncn12 (single isomer, unassigned) [Example A117a]", "cellular IDO1 in HeLa cells (Homo sapiens, UniProt P14902)", "=", 7.04],
  ["OC(c1c(C2CC2)ccc2cncn12)C1CC1 (stereo not shown) [Example A137]", "cellular IDO1 in HeLa cells (Homo sapiens, UniProt P14902)", "=", 5.42],
  ["OC(c1cc(I)cc2cncn12)C1CCCCC1 (stereo not shown) [Example A107, 2,2,2-trifluoroacetate]", "cellular IDO1 in HeLa cells (Homo sapiens, UniProt P14902)", "=", 6.01],
  ["CC1CCC(C(O)c2cc(Cl)cc3cncn23)CC1 (stereo not shown) [Example A104]", "cellular IDO1 in HeLa cells (Homo sapiens, UniProt P14902)", "=", 5.66],
  ["OC(CCC1CCCCC1)c1c(Cl)ccc2cncn12 (stereo not shown) [Example A128]", "cellular IDO1 in HeLa cells (Homo sapiens, UniProt P14902)", "=", 5.66],
  ["OC(c1c(Br)ccc2cncn12)C1CCCC1 (stereo not shown) [Example A120]", "cellular IDO1 in HeLa cells (Homo sapiens, UniProt P14902)", "=", 5.85],
  ["OC(CC12CC3CC(CC(C3)C1)C2)c1c(C2CC2)ccc2cncn12 (stereo not shown) [Example A163]", "cellular IDO1 in HeLa cells (Homo sapiens, UniProt P14902)", "=", 6.99],
  ["OC1CC2CC1CC2C(O)c1c(C2CC2)ccc2cncn12 (stereo not shown) [Example A165]", "cellular IDO1 in HeLa cells (Homo sapiens, UniProt P14902)", "=", 5.92],
  ["OC(CC1CCCCC1)c1cc(C(F)(F)F)cc2cncn12 (single isomer, unassigned) [Example A114a]", "cellular IDO1 in HeLa cells (Homo sapiens, UniProt P14902)", "<", 5.00],
  ["Cc1noc(C)c1-c1ccc2cncn2c1C(O)C1CCCCC1 (stereo not shown) [Example A140]", "cellular IDO1 in HeLa cells (Homo sapiens, UniProt P14902)", "=", 5.11],
  ["OC1CCC([C@H](O)c2c(C3CC3)ccc3cncn23)CC1 (stereo partly shown) [Example A142a]", "cellular IDO1 in HeLa cells (Homo sapiens, UniProt P14902)", "=", 6.18],
  ["CC(O)(c1cccc2cncn12)C1CCCCC1 (stereo not shown) [Example A016]", "cellular IDO1 in HeLa cells (Homo sapiens, UniProt P14902)", "<", 5.00],
  ["OC(CC1CCCCC1)c1c(C(F)(F)F)ccc2cncn12 (stereo not shown) [Example A127]", "cellular IDO1 in HeLa cells (Homo sapiens, UniProt P14902)", "=", 6.78],
  ["OC(c1cc(Br)cc2cncn12)C1CCCC1 (stereo not shown) [Example A112]", "cellular IDO1 in HeLa cells (Homo sapiens, UniProt P14902)", "=", 5.98],
  ["O=C(O)c1cccc(C(O)c2c(C3CC3)ccc3cncn23)c1 (stereo not shown) [Example A159]", "cellular IDO1 in HeLa cells (Homo sapiens, UniProt P14902)", "<", 5.00],
  ["FC(c1cc(Cl)cc2cncn12)C1CCCCC1 (stereo not shown) [Example A021]", "cellular IDO1 in HeLa cells (Homo sapiens, UniProt P14902)", "<", 5.00]
]}
